# protocolText: Solubility in FaSSIF
# experimentalContext: 23 °C, pH 6.5, fassif, thermodynamic from solid
Below, each entry is listed alongside its reported solubility at 2 h.
Answer format: numeric, µg/mL implied, no suffix.

structure: COC(=O)N[C@H](C(=O)N[C@@H](Cc1ccc(C#Cc2cnc(N3CC4CCC(C3)N4C3COC3)nc2)cc1)[C@H](CN(Cc1c(F)cc(-c2ccn(C(F)F)n2)cc1F)NC(=O)[C@@H](NC(=O)OC)C(C)(C)C(F)(F)F)OC(=O)OCOC(=O)CC(C)(C)c1c(CC(=O)N[C@@H](CC(N)=O)C(=O)O)cc(C)cc1OP(=O)(O)O)C(C)(C)C(F)(F)F
readingUnit: µg/mL
solubility at 2 h: 4980
--
structure: COC(=O)N[C@H](C(=O)N[C@@H](Cc1ccc(C#Cc2cnc(N3CC4CCC(C3)N4C3COC3)nc2)cc1)[C@H](CN(Cc1c(F)cc(-c2ccn(C(F)F)n2)cc1F)NC(=O)[C@@H](NC(=O)OC)C(C)(C)C(F)(F)F)OC(=O)CC(C)(C)c1c(CC(=O)N2CCC[C@H]2C(=O)O)cccc1OP(=O)(O)O)C(C)(C)C(F)(F)F
readingUnit: µg/mL
solubility at 2 h: 2870
--
structure: COC(=O)N[C@H](C(=O)N[C@@H](Cc1ccc(C#Cc2cnc(N3CC4CCC(C3)N4C3COC3)nc2)cc1)[C@H](CN(Cc1c(F)cc(-c2ccn(C(F)F)n2)cc1F)NC(=O)[C@@H](NC(=O)OC)C(C)(C)C(F)(F)F)OC(=O)CC(C)(C)c1c(CC(=O)NCCC(=O)O)cc(C)cc1OP(=O)(O)O)C(C)(C)C(F)(F)F
readingUnit: µg/mL
solubility at 2 h: 1440

Report solubility at 2 h for COC(=O)N[C@H](C(=O)N[C@@H](Cc1ccc(C#Cc2cnc(N3CC4CCC(C3)N4C3COC3)nc2)cc1)[C@H](CN(Cc1c(F)cc(-c2ccn(C(F)F)n2)cc1F)NC(=O)[C@@H](NC(=O)OC)C(C)(C)C(F)(F)F)OC(=O)CC(C)(C)c1c(CC(=O)N[C@@H](CC(C)C)C(=O)O)cc(C)cc1OP(=O)(O)O)C(C)(C)C(F)(F)F please.
1880

Using the record for COC(=O)N[C@H](C(=O)N[C@@H](Cc1ccc(C#Cc2cnc(N3CC4CCC(C3)N4C3COC3)nc2)cc1)[C@H](CN(Cc1c(F)cc(-c2ccn(C(F)F)n2)cc1F)NC(=O)[C@@H](NC(=O)OC)C(C)(C)C(F)(F)F)OC(=O)CC(C)(C)c1c(CC(=O)N2CCC[C@@H]2C(=O)O)cc(C)cc1OP(=O)(O)O)C(C)(C)C(F)(F)F , report its solubility at 2 h.
4760

So what's the measured solubility at 2 h for this one? COC(=O)N[C@H](C(=O)N[C@@H](Cc1ccc(C#Cc2cnc(N3CC4CCC(C3)N4C3COC3)nc2)cc1)[C@H](CN(Cc1c(F)cc(-c2ccn(C(F)F)n2)cc1F)NC(=O)[C@@H](NC(=O)OC)C(C)(C)C(F)(F)F)OC(=O)CC(C)(C)c1c(CC(=O)NC(CC(=O)O)CC(=O)O)cc(C)cc1OP(=O)(O)O)C(C)(C)C(F)(F)F
1920

###

# protocolText: Intestinal S9 Assay (dog GI S9)
# Type: in vitro ADME
# experimentalContext: dog, 1.0 mg/mL S9 protein, TRIS pH 7.4, read-out: Dog GI S9 T½
endpointLabel: half-life at 2 μM
Answer format: value, then unit.

structure: COC(=O)N[C@H](C(=O)N[C@@H](Cc1ccc(C#Cc2cnc(N3CC4CCC(C3)N4C3COC3)nc2)cc1)[C@H](CN(Cc1c(F)cc(-c2ccn(C(F)F)n2)cc1F)NC(=O)[C@@H](NC(=O)OC)C(C)(C)C(F)(F)F)OC(=O)CC(C)(C)c1c(CC(=O)N2CC[C@@H]2C(=O)O)cc(C)cc1OP(=O)(O)O)C(C)(C)C(F)(F)F
recordedResult: 1.14 h

Suppose we examine the compound COC(=O)N[C@H](C(=O)N[C@@H](Cc1ccc(C#Cc2cnc(N3CC4CCC(C3)N4C3COC3)nc2)cc1)[C@H](CN(Cc1c(F)cc(-c2ccn(C(F)F)n2)cc1F)NC(=O)[C@@H](NC(=O)OC)C(C)(C)C(F)(F)F)OC(=O)CC(C)(C)c1c(CC(=O)Nc2cc(C(=O)O)cc(C(=O)O)c2)cccc1OP(=O)(O)O)C(C)(C)C(F)(F)F ; what half-life at 2 μM value has been reported?
0.3 h

Query: half-life at 2 μM; subject: C=C1C[C@@H](C(=O)O)N(C(=O)Cc2cc(C)cc(OP(=O)(O)O)c2C(C)(C)CC(=O)O[C@@H](CN(Cc2c(F)cc(-c3ccn(C(F)F)n3)cc2F)NC(=O)[C@@H](NC(=O)OC)C(C)(C)C(F)(F)F)[C@H](Cc2ccc(C#Cc3cnc(N4CC5CCC(C4)N5C4COC4)nc3)cc2)NC(=O)[C@@H](NC(=O)OC)C(C)(C)C(F)(F)F)C1
5.81 h

For the compound shown here, COC(=O)N[C@H](C(=O)N[C@@H](Cc1ccc(C#Cc2cnc(N3CC4CCC(C3)N4C3COC3)nc2)cc1)[C@H](CN(Cc1c(F)cc(-c2ccn(C(F)F)n2)cc1F)NC(=O)[C@@H](NC(=O)OC)C(C)(C)C(F)(F)F)OC(=O)CC(C)(C)c1c(CC(=O)NCC(=O)O)cc(C)cc1OP(=O)(O)O)C(C)(C)C(F)(F)F , give the reported half-life at 2 μM.
1.03 h

Find the recorded half-life at 2 μM belonging to COC(=O)N[C@H](C(=O)N[C@@H](Cc1ccc(C#Cc2cnc(N3CC4CCC(C3)N4C3COC3)nc2)cc1)[C@H](CN(Cc1c(F)cc(-c2ccn(C(F)F)n2)cc1F)NC(=O)[C@@H](NC(=O)OC)C(C)(C)C(F)(F)F)OC(=O)CC(C)(C)c1c(CC(=O)NCc2ccc(S(N)(=O)=O)cc2)cc(C)cc1OP(=O)(O)O)C(C)(C)C(F)(F)F and report it.
13.2 h

Please give the measured half-life at 2 μM for this compound: COC(=O)N[C@H](C(=O)N[C@@H](Cc1ccc(C#Cc2cnc(N3CC4CCC(C3)N4C3COC3)nc2)cc1)[C@H](CN(Cc1c(F)cc(-c2ccn(C(F)F)n2)cc1F)NC(=O)[C@@H](NC(=O)OC)C(C)(C)C(F)(F)F)OC(=O)CC(C)(C)c1c(CC(=O)O)cc(C)cc1OP(=O)(O)O)C(C)(C)C(F)(F)F
1.69 h

Looking for the measured half-life at 2 μM of COC(=O)N[C@H](C(=O)N[C@@H](Cc1ccc(C#Cc2cnc(N3CC4CCC(C3)N4C3COC3)nc2)cc1)[C@H](CN(Cc1c(F)cc(-c2ccn(C(F)F)n2)cc1F)NC(=O)[C@@H](NC(=O)OC)C(C)(C)C(F)(F)F)OC(=O)CC(C)(C)c1c(CC(=O)N[C@@H](CCS(=O)(=O)O)C(=O)O)cc(C)cc1OP(=O)(O)O)C(C)(C)C(F)(F)F , can you help?
1.51 h

# get_value(readout='half-life at 2 μM', item= COC(=O)N[C@H](C(=O)N[C@@H](Cc1ccc(C#Cc2cnc(N3CC4CCC(C3)N4C3COC3)nc2)cc1)[C@H](CN(Cc1c(F)cc(-c2ccn(C(F)F)n2)cc1F)NC(=O)[C@@H](NC(=O)OC)C(C)(C)C(F)(F)F)OC(=O)CC(C)(C)c1c(CC(=O)N[C@]2(C(=O)O)CCOC2)cc(C)cc1OP(=O)(O)O)C(C)(C)C(F)(F)F )
1.17 h
